Target: PD-1/PD-L1 interaction (Homo sapiens, UniProt Q9NZQ7)
Construct: expressed in transfected cells; host or cells: CHO cells (aAPC-PD-L1) co-cultured with Jurkat cells overexpressing PD-1 and an NFAT-luciferase reporter
Sequence (Q9NZQ7 19-290): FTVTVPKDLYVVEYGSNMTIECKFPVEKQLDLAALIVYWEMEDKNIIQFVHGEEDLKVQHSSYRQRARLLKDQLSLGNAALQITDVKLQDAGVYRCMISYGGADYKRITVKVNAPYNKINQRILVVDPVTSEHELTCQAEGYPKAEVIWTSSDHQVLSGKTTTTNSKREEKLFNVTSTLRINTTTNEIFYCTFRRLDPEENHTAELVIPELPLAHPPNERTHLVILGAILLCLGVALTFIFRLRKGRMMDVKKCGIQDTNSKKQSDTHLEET
Test: PD-1/PD-L1 NFAT reporter co-culture assay
Format: cell-based
Conditions: Jurkat PD-1 NFAT-luciferase cells co-cultured with aAPC-PD-L1 CHO cells, 6 hrs at 37° C.; read-out: EC50 NFAT Luciferase
property: pEC50
Please note pEC50 is a logarithmic value: minus log10 of concentration in mol/L. Answer with that number alone.

Below: 3 compounds and their reported pEC50.
Q) # input compound: `COc1nc(C(=O)Nc2cccc(-c3cccc(-c4ccc(CNC[C@@H]5CCC(=O)N5)c(OC)n4)c3Cl)c2Cl)ccc1CNC[C@@H]1CCC(=O)N1` ; wanted: its pEC50
A) 6.17

Q) Item: `COc1nc(-c2cccc(-c3cccc(-c4nc5cc(CNCCO)cc(OC)c5o4)c3Cl)c2Cl)ccc1CNCCO`
A) 6.31

Q) Next record, please: `COc1nc(-c2cccc(-c3csc(-c4cnc(CNC[C@@H]5CCC(=O)N5)c(OC)n4)c3)c2Cl)ccc1CNC[C@@H]1CCC(=O)N1`
A) 6.62

Others:
Q) Item `COc1nc(O[C@H]2CCc3c(-c4cccc5c4CC[C@@H]5Oc4nc(OC)c(CNCCO)cc4Br)cccc32)c(Br)cc1CNCCO` has what recorded pEC50?
A) 6.30

Q) // query: `Cc1c(COc2cc(OCc3cncc(C#N)c3)c(CN[C@@H]3CCC[C@@H]3O)cc2Cl)cccc1-c1cccc(-c2ccc(CN3CC(CC(=O)O)C3)cc2)c1C`
A) 6.93

Q) Next compound up: Cc1c(COc2cc(OCc3cncc(C#N)c3)c(CN[C@@](C)(CO)C(=O)O)cc2Cl)cccc1-c1cccc(-c2ccc(CC3CCCN3)cc2)c1C (stereo partly drawn)
A) 6.21

---

Molecular target: PD-1/PD-L1 (Homo sapiens, UniProt Q9NZQ7)
Sequence (Q9NZQ7 19-238 limits assumed): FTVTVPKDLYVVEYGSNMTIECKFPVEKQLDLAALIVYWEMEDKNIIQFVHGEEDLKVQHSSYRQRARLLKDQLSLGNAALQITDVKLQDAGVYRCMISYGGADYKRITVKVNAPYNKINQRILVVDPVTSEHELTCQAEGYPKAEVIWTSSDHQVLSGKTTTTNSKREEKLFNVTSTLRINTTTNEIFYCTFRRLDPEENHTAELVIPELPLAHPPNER
Assay: PD-1/PD-L1 biochemical protein-protein interaction assay (ALPHA)
Settings: 0.3 nM His tagged PD-L1, 2.5 nM biotinylated Fc-PD-1, 60 minutes at 25° C., read-out: IC50 PD-L1-PD-1 Alpha IC50-mono PD-L1-fcP-D1
property: pIC50
Hey, just a heads up that pIC50 is the negative log base 10 of the concentration in molar.

Q) Recorded pIC50 of `COc1nc(-c2cccc(-c3cccc4c3CC[C@@H]4Oc3nc(OCc4cncc(C#N)c4)c(CNC(C)(C)C(=O)O)cc3Cl)c2Br)ccc1C1=NCCN1` , please.
A) 9.09

Q) Repeat for the following compound: COc1ccc(-c2cccc(-c3cccc(COc4cc(OCc5cncc(C#N)c5)c(CN[C@@](C)(CO)C(=O)O)cc4Cl)c3C)c2C)cc1CNCC1CCC(=O)N1 (stereo partly drawn)
A) 10.01

Q) Another: `COc1nc(-c2cccc(-c3cccc(COc4nc(OCc5cncc(C#N)c5)c(CNC[C@@H]5CCC(=O)N5)cc4Br)c3Cl)c2Cl)ccc1C1=NCCN1`
A) 9.71

Q) Here is the next compound: `Cc1c(COc2cc(OCc3cncc(C#N)c3)c(CNCCCC(=O)O)cc2Cl)cccc1-c1cccc(COc2cc(OCc3cncc(C#N)c3)c(CNCCCC(=O)O)cc2Cl)c1C`
A) 9.70

Q) And what about the compound `COc1cc(O[C@H]2CCc3c(-c4cccc(-c5ccc(CN6CC7(CCC(=O)N7)C6)c(OC)n5)c4Cl)cccc32)c(Cl)cc1CNC[C@@H]1CCC(=O)N1` ?
A) 9.12

***
Q) Given the compound `COc1cc(-c2cccc(-c3cccc(-c4cnc(C5=NCCN5)c(OC)c4)c3Cl)c2Cl)cnc1CNC[C@@H](O)CC(=O)O` , what is its reported pIC50?
A) 10.19

Q) Similarly, Cc1c(COc2cc(OCc3cncc(C#N)c3)c(CN[C@@](C)(CO)C(=O)O)cc2Cl)cccc1-c1cccc(-c2ccc(C3CCNC3)cc2)c1C (stereo partly drawn) ?
A) 9.40

Q) What do you have for COC1CN(C2CCc3cc(-c4cccc(-c5cccc(COc6cc(OCc7cncc(C#N)c7)c(CN[C@@](C)(CO)C(=O)O)cc6Cl)c5C)c4C)ccc32)C1 (stereo partly drawn) ?
A) 10.01

Q) Same question, `COc1nc(-c2cccc(-c3cccc(-c4ccc5c(c4)[C@H](O)C[C@@H]5N)c3Cl)c2Cl)ccc1CNC[C@@H]1CCC(=O)N1` this time
A) 9.32

Q) What would you report for `Cc1c(-c2ccc(CN3CC[C@@H](O)C3)cc2)cccc1-c1cccc(-c2ccc(CNC[C@@H](O)CC(=O)O)c(OCCCC#N)c2)c1C` ?
A) 9.30

Q) Would you kindly repeat that for `Cc1c(COc2cc(OCc3cncc(C#N)c3)c(CN[C@@](C)(CO)C(=O)O)cc2Cl)cccc1-c1cccc(-c2ccc(OCCNCCO)cc2)c1C` ?
A) 10.19

Q) Also need `Cc1c(COc2cc(OCc3cncc(C#N)c3)c(CNC[C@@H](O)CC(=O)O)cc2Cl)cccc1-c1cccc(-c2cn(C3CCNCC3)nn2)c1C` , thanks.
A) 9.73
